Biological target: Btk (Homo sapiens, UniProt Q06187)
Construct: purified from insect cells as a full-length construct containing a N-terminal 6X-His tag; His6 (N); made in house; host or cells: insect cells (Method C)
Sequence (Q06187 whole entry): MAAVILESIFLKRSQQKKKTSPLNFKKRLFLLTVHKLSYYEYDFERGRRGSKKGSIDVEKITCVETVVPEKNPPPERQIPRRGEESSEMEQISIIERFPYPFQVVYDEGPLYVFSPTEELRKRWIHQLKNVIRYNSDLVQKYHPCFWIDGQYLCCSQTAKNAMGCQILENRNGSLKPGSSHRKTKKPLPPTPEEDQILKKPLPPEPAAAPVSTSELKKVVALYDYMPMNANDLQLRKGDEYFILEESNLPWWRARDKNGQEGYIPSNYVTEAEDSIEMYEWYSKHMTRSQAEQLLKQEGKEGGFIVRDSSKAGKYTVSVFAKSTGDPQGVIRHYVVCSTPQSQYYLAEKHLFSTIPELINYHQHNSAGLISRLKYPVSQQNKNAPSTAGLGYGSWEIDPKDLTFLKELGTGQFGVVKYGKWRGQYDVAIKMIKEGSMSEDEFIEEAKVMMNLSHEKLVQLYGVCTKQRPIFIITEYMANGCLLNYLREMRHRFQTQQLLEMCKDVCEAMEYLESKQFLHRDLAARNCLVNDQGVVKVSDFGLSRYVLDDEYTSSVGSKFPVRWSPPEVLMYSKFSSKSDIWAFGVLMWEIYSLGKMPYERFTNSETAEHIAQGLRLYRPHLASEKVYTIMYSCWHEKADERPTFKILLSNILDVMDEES
Assay: Btk in vitro inhibitory activity (one of Method A TR-FRET, Method B electrophoretic mobility shift, Method C radiometric filter binding)
Assay type: biochemical
Conditions: wild-type Btk; read-out: Btk-WT IC50
Grouping key: IC50. Bins: low group (below 1 nM), middle group (1 nM to below 60 nM), high group (60 nM or more)

Worked set:
> print(dat)
                           substance.smiles  category.label
1  CC(C)(C)c1nc(C(=O)NC2(c3ccc(-c4ccnc5[nH]nc(N[C@@H]6CCCNC6)c45)cc3F)CC2)no1      high group
2  CN1CCN(c2n[nH]c3nccc(-c4ccc(CNC(=O)c5nc(C(C)(C)C)no5)c(F)c4)c23)C(=O)C1=O      high group
3  C=CC(=O)N1CC[C@@H](Nc2n[nH]c3nccc(-c4ccc([C@@H](C)NC(=O)c5noc(C(C)(C)C)n5)c(F)c4)c23)C1       low group
4  C=CC(=O)NC1CCN(c2n[nH]c3nccc(-c4ccc(CNC(=O)c5nc(C(C)(C)C)no5)c(F)c4)c23)CC1       low group
5  CC(C)(C)c1nc(C(=O)NCc2ccc(-c3ccnc4[nH]nc(N5CC[C@@H](N)C5)c34)cc2F)no1    middle group
6  C=CC(=O)N1CC[C@@H](Nc2n[nH]c3nccc(-c4ccc(CNC(=O)c5ccc(C(=C)C)cc5)c(F)c4)c23)C1      high group
7  C[C@H]1CC[C@@H](Nc2n[nH]c3nccc(-c4ccc(CNC(=O)c5noc(C(C)(C)C)n5)c(F)c4)c23)CN1S(=O)(=O)C1CC1    middle group
8  CN(C)C/C=C/C(=O)N1CC[C@@H](Nc2n[nH]c3nccc(-c4ccc(CNC(=O)c5noc(C(C)(C)C)n5)c(F)c4)c23)C1       low group

Data request: Which bin, given its IC50, does CC#CC(=O)N1CC[C@@H](Nc2n[nH]c3nccc(-c4ccc(CNC(=O)c5ccc(C(F)(F)F)cc5)c(F)c4)c23)C1 occupy?
Data returned: middle group

Data request: Thanks! And C=CC(=O)N1CCC(Nc2n[nH]c3nccc(-c4ccc(CNC(=O)c5noc(C(C)(C)C)n5)c(F)c4)c23)CC1 ?
Data returned: low group

Data request: Thanks! And C[C@@H](NC(=O)c1cc(C(C)(C)O)on1)c1ccc(-c2ccnc3[nH]nc(NC4CCCC4)c23)cc1 ?
Data returned: high group

Data request: Thanks! And C[C@H]1CC[C@@H](Nc2n[nH]c3nccc(-c4ccc(CNC(=O)c5noc(C(C)(C)C)n5)c(F)c4)c23)CN1C(=O)C1CC1 ?
Data returned: middle group

Data request: Thanks! And CC(C)(C)c1ncc(C(=O)NCc2ccc(-c3ccnc4[nH]nc(N[C@H]5CC[C@H](O)CC5)c34)cc2F)o1 ?
Data returned: high group

----------
Assignment: determine reported IC50 for the given molecules.
Protein target, amino acids: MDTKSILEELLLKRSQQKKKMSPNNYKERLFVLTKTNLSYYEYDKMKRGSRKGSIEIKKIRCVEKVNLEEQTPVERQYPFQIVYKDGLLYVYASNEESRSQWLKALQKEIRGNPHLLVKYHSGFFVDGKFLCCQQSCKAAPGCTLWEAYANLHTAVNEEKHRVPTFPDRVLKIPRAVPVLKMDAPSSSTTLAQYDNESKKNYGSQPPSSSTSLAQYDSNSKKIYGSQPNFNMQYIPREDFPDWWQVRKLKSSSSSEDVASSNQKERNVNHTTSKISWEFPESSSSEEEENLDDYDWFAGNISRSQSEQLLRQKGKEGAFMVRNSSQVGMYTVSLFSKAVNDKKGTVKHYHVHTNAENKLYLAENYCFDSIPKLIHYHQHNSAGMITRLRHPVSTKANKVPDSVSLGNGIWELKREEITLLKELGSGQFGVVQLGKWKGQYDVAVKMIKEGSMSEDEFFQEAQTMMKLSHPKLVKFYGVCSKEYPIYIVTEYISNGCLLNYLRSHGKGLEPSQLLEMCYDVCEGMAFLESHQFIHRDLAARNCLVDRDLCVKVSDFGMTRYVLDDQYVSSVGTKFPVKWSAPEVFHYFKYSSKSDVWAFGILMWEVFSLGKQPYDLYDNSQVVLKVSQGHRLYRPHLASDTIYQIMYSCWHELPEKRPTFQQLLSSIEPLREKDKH
Numbers only, in µM.

Reference set, count: 6
> print(dat)
                                   molecule  reported.result
1  CN(C)C(=O)N1CC[C@@H](Nc2n[nH]c3nccc(-c4ccc(CNC(=O)c5coc(C(C)(C)C)n5)c(F)c4)c23)C1 [Example 296]             4.69
2  C[C@@H](NC(=O)c1cc(C(C)(C)O)on1)c1ccc(-c2ccnc3[nH]nc(NC4CCS(=O)(=O)CC4)c23)cc1 [Example 385]             9.78
3  C[C@@H](NC(=O)c1nc(C(C)(C)C)no1)c1ccc(-c2ccnc3[nH]nc(N[C@@H]4CC[C@H](C)N(C(=O)N(C)C)C4)c23)cc1F [Example 193]             1.04
4  C[C@H]1CC[C@@H](Nc2n[nH]c3nccc(-c4ccc(CNC(=O)c5nc(C(C)(C)C)no5)c(F)c4)c23)CN1C(=O)N(C)C [Example 391]             1.35
5  CCc1cc(C(=O)NCc2ccc(-c3ccnc4[nH]nc(N[C@@H]5CCCN(C(=O)N(C)C)[C@@H]5C)c34)cc2F)no1 [Example 171]             7.79
6  CC(C)c1cc(C(=O)NCc2ccc(-c3ccnc4[nH]nc(N[C@@H]5CCCN(C(=O)N(C)C)[C@@H]5C)c34)cc2F)no1 [Example 305]             9.58

// for each molecule below, give its IC50
1. C=CC(=O)N1CC[C@@H](Nc2n[nH]c3nccc(-c4ccc(NC(=O)c5ccc(C(C)(C)C)cc5)c(F)c4)c23)C1 [Compound 45]
2. C=CC(=O)N1CC[C@@H](Nc2n[nH]c3nccc(-c4ccc(CCNC(=O)c5noc(C(C)(C)C)n5)c(F)c4)c23)C1 [Example 87]

Data returned:
1: 0.449; 2: 0.276
